assay-system: human activated kallikrein enzyme (Homo sapiens, UniProt P03952)
Sequence (P03952 391-638 limits assumed): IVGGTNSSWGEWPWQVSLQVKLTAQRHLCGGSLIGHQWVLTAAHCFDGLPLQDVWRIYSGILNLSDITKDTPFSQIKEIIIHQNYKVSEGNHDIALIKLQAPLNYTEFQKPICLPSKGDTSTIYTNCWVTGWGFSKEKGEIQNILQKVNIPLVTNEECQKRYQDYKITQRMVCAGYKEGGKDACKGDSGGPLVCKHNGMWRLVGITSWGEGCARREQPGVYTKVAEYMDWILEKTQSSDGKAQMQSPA
Sequence (P03952 20-390 partner limits assumed): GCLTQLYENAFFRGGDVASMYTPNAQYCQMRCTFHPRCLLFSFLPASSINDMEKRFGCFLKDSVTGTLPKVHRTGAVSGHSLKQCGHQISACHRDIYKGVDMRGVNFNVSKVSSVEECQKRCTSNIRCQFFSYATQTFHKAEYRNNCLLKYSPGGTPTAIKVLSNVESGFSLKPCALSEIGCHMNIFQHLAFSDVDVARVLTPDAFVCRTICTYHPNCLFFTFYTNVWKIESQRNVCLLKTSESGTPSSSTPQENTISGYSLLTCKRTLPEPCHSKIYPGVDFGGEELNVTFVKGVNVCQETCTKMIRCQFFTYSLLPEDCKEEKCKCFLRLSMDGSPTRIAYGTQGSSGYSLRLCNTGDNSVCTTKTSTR
measurement-protocol: Plasma kallikrein inhibition, fluorogenic PFR-AMC substrate, 500 pM activated kallikrein format
Assay type: biochemical
assay-context: 500 pM activated kallikrein, 300 uM PFR-AMC, 30 min preincubation, 10 min reaction; read-out: Primary Dose Response Assay: Average EC50
Catalogue of EC50 readings, one per entry.

get_value(item= `O=C(O)c1cc(C2CC2)cn2cc(CNc3cc(NC(=O)[C@H]4C[C@@H]4c4cccc(Cl)c4)ncn3)nc12` , readout=EC50) returns 1 to 10 nM

get_value(item= O=C(NCc1cn(Cc2cn3cc(C4CC4)ccc3n2)nn1)[C@H]1C[C@@H]1c1cccc(Cl)c1 (racemic) , readout=EC50) returns 10 to 100 nM

get_value(item= `CN1CCN(c2cc(C3CC3)cn3cc(CNc4cc(NC(=O)[C@H]5C[C@@H]5c5cccc(Cl)c5)ncn4)nc23)CC1=O` , readout=EC50) returns 1 to 10 nM

get_value(item= O=C(Nc1cc(NCc2cn3cc(C4CC4)cc(N4CCCC4C(F)(F)F)c3n2)ncn1)[C@H]1C[C@@H]1c1cccc(Cl)c1 (stereo partly shown) , readout=EC50) returns 100 to 1000 nM

---

assay-system: plasma kallikrein (Homo sapiens, UniProt P03952)
Construct: from tissue
measurement-protocol: Neat human plasma assay, FXIIa contact pathway-activated, PFR-AMC substrate
Type: biochemical
assay-context: citrated human plasma 78% final, 10 nM human FXIIa, 100 μM PFR-AMC; read-out: Human Plasma Assay: IC90
Catalogue of IC90 readings, one per entry.

[[record]]
molecule = "CC(=O)N(C)c1cc(C2CC2)cn2cc(CNc3ccnc(NC(=O)[C@H]4C[C@@H]4c4cccc(Cl)c4)c3)nc12 [Example 139]"
recorded_value = "400 to 1500 nM"


Turning now to a further record.
get_value(item= Cc1ccnc([C@H]2C[C@@H]2C(=O)Nc2cc(N(C)C(C)c3cn4cc(C5CC5)cc(N5CC(=O)N(C)C5=O)c4n3)ncn2)n1 (stereo partly drawn) [Example 369] , readout=IC90) returns 1500 to 10000 nM

---

assay-system: plasma kallikrein (Homo sapiens)
Construct: from tissue
measurement-protocol: Neat human plasma assay, FXIIa contact pathway-activated, PFR-AMC substrate
Format: biochemical
assay-context: citrated human plasma 78% final, 10 nM human FXIIa, 100 μM PFR-AMC; read-out: Human Plasma Assay: IC90
experimental-readout: IC90

get_value(item= N#Cc1cc(C2CC2)cn2cc(CNc3cc(NC(=O)[C@H]4C[C@@H]4c4cccc(Cl)c4)ncn3)nc12 (racemic) [Example 71] , readout=IC90) returns 10000 to 48000 nM

get_value(item= Cc1ccnc([C@H]2C[C@@H]2C(=O)Nc2cc(NCc3cn4cc(C5CC5)cc(N5CC(=O)NC5=O)c4n3)ncn2)n1 (racemic) [Example 392] , readout=IC90) returns 400 to 1500 nM

get_value(item= Cc1cccc([C@H]2C[C@@H]2C(=O)Nc2cc(NCc3cn4cc(C5CC5)cc(N5CC(=O)N(C)C5=O)c4n3)ncn2)n1 (racemic) [Example 500] , readout=IC90) returns 400 to 1500 nM

get_value(item= Cc1ccnc([C@H]2C[C@@H]2C(=O)Nc2cc(OC(C)c3cn4cc(C5CC5)cc(N5CC(=O)N(C)C5=O)c4n3)ncn2)n1 (stereo partly drawn) [Example 549] , readout=IC90) returns 400 to 1500 nM

get_value(item= O=C(Nc1cc(NCc2cn3cc(C4CC4)ccc3n2)ncn1)[C@H]1C[C@@H]1c1cc(Cl)ccc1Cl (racemic) [Example 49] , readout=IC90) returns < 400 nM

get_value(item= Cc1ccnc([C@H]2C[C@@H]2C(=O)Nc2cc(NCc3cn4cc(C5CC5)cc(N5CC(=O)N(C6CC6)C5=O)c4n3)ncn2)n1 [Example 384] , readout=IC90) returns < 400 nM
